- experimental.system: CYP2B6 (Homo sapiens)
- Sequence (P20813 whole entry): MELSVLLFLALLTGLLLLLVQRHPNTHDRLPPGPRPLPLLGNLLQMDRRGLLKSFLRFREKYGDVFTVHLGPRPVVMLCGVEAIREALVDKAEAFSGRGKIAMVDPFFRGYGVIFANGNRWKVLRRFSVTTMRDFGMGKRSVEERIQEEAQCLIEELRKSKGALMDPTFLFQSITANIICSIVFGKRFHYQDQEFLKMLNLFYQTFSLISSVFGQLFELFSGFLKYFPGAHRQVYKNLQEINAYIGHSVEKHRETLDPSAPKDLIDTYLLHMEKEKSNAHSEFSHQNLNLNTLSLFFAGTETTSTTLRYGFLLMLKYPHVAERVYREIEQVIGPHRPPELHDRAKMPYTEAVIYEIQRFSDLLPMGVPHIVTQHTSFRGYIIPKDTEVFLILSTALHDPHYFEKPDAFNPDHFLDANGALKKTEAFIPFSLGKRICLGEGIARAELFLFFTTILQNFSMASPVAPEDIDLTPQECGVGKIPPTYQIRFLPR
- assay.summary: CYP2B6 Vivid CYP450 Blue fluorescent inhibition assay
- Format: biochemical
- recorded.conditions: variable slope sigmoidal fit, GraphPad Prism 7.0
Assign rule met to entries whose CYP2B6 Hillslope meets or exceeds -1; assign rule not met to the rest.

> print(dat)
                                    molecule    class.name
 1  CC/C=C\C/C=C\C/C=C\CCCCCCCC(=O)O [α-Linolenic acid]  rule not met
 2      O=C(O)c1ccccc1C(=O)O [Phthalic acid]  rule not met
 3  CCOP(=S)(OCC)Oc1cc(C)nc(C(C)C)n1 [Diazinon]  rule not met
 4  C[C@H](CCC(=O)O)[C@H]1CC[C@H]2[C@@H]3CC[C@@H]4C[C@H](O)CC[C@]4(C)[C@H]3CC[C@]12C [Lithocholic acid]      rule met
 5  O=S1OCC2C(CO1)C1(Cl)C(Cl)=C(Cl)C2(Cl)C1(Cl)Cl (stereo not shown) [Endosulfan]      rule met
 6  C[C@H](CCC(=O)O)[C@H]1CC[C@H]2[C@@H]3[C@H](O)C[C@@H]4C[C@H](O)CC[C@]4(C)[C@H]3CC[C@]12C [Chenodeoxycholic acid]  rule not met
 7        CCNc1nc(Cl)nc(NC(C)C)n1 [Atrazine]      rule met
 8  Clc1ccccc1CN1CCc2sccc2C1 [Ticlopidine, reference compound]      rule met
 9  CCCCC/C=C\C/C=C\C/C=C\C/C=C\CCCC(=O)O [Arachidonic acid]      rule met
10   CCCCCCCC/C=C\CCCCCCCC(=O)O [Oleic acid]  rule not met
11  CCOP(=S)(OCC)Oc1ccc([N+](=O)[O-])cc1 [Parathion]  rule not met
12  C[C@]12CC[C@@H]3c4ccc(O)cc4CC[C@H]3[C@@H]1CC[C@@H]2O [Estradiol]      rule met
13  C[C@]12CC[C@H]3[C@@H](CCC4=CC(=O)CC[C@@]43C)[C@@H]1CC[C@@H]2O [Testosterone]      rule met
14  CC/C=C\C/C=C\C/C=C\C/C=C\C/C=C\C/C=C\CCC(=O)O [Docosahexaenoic acid]  rule not met
15  CC1(C)C(C=C(Cl)Cl)C1C(=O)OC(C#N)c1cccc(Oc2ccccc2)c1 (stereo not shown) [Cypermethrin]      rule met
16  Oc1cc(Cl)ccc1Oc1ccc(Cl)cc1Cl [Triclosan]  rule not met
17  CCOP(=S)(OCC)Oc1nc(Cl)c(Cl)cc1Cl [Chlorpyrifos]  rule not met
18  CCCCC/C=C\C/C=C\CCCCCCCC(=O)O [Linoleic acid]      rule met
19  CC(C)(c1ccc(O)cc1)c1ccc(O)cc1 [Bisphenol A]  rule not met

###

- experimental.system: CYP2B6 (Homo sapiens)
pIC50: −log10 of the molar value.
parameter.measured: pIC50

> print(dat)
                                    compound  value.observed
 1  C[C@]12CC[C@@H]3c4ccc(O)cc4CC[C@H]3[C@@H]1CC[C@@H]2O            4.37
 2  C[C@H](CCC(=O)O)[C@H]1CC[C@H]2[C@@H]3CC[C@@H]4C[C@H](O)CC[C@]4(C)[C@H]3CC[C@]12C            5.61
 3      CCOP(=S)(OCC)Oc1ccc([N+](=O)[O-])cc1            7.59
 4          CCOP(=S)(OCC)Oc1nc(Cl)c(Cl)cc1Cl            8.04
 5     CCCCC/C=C\C/C=C\C/C=C\C/C=C\CCCC(=O)O            5.98
 6  CC1(C)C(C=C(Cl)Cl)C1C(=O)OC(C#N)c1cccc(Oc2ccccc2)c1 (centres unmarked)            2.22
 7          CCOP(=S)(OCC)Oc1cc(C)nc(C(C)C)n1            7.12
 8                      O=C(O)c1ccccc1C(=O)O            2.93
 9  CC/C=C\C/C=C\C/C=C\C/C=C\C/C=C\C/C=C\CCC(=O)O            5.69
10              Oc1cc(Cl)ccc1Oc1ccc(Cl)cc1Cl            6.03
11             CC(C)(c1ccc(O)cc1)c1ccc(O)cc1            5.07
12          CC/C=C\C/C=C\C/C=C\CCCCCCCC(=O)O            5.14
13             CCCCC/C=C\C/C=C\CCCCCCCC(=O)O            5.04
14  O=S1OCC2C(CO1)C1(Cl)C(Cl)=C(Cl)C2(Cl)C1(Cl)Cl (centres unmarked) [Endosulfan]            8.52
15  C[C@H](CCC(=O)O)[C@H]1CC[C@H]2[C@@H]3[C@H](O)C[C@@H]4C[C@H](O)CC[C@]4(C)[C@H]3CC[C@]12C            4.31
16                   CCNc1nc(Cl)nc(NC(C)C)n1            6.84
17                CCCCCCCC/C=C\CCCCCCCC(=O)O            5.03

From: paper PMC8914530
